These entries and their values trace back to PubChem BioAssay AID1845196.

- Tested on: 292921-168-R tumor spheroid viability;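 further: spheroids exposed to compounds for 7 days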
- Test name: Anticancer human tumor 292921-168-R patient-derived pancreatic carcinoma cell line growth inhibition
- Condition set: second compound 0.00949 µM; first compound 10 µM; active compounds read low; spheroids with HUVEC and MSC
Measure: viability, T/C (%)
The figure you give is taken to be in %; do not add the unit.

Previously resolved entries follow.
Compound: COc1ccc([C@@H](O)c2cc(-c3ncnc4cc(N5CCOCC5)ccc34)c(F)cc2Cl)nn1 + CC[C@@]1(O)C(=O)OCc2c1cc1n(c2=O)Cc2cc3c(CN(C)C)c(O)ccc3nc2-1
Unit label: %
viability, T/C: 17.9

Compound: [2H]c1nc(C)nc([2H])c1-c1cc(NC[C@@H](C)c2cccc3c(C(=O)NC)ccnc23)ncn1 + CC[C@@]1(O)C(=O)OCc2c1cc1n(c2=O)Cc2cc3c(CN(C)C)c(O)ccc3nc2-1
Unit label: %
viability, T/C: 70.9

Compound: Cc1cc(C)c(CNC(=O)c2cc(-c3ccc(CN4CCOCC4)cc3)cc3c2cnn3C2CCCC2)c(=O)[nH]1 + CC[C@@]1(O)C(=O)OCc2c1cc1n(c2=O)Cc2cc3c(CN(C)C)c(O)ccc3nc2-1
Unit label: %
viability, T/C: 53

Compound: COc1cc(C)[nH]c(=O)c1CN1CCc2c(Cl)cc(C(OC)C3COC3)c(Cl)c2C1=O (stereo unspecified) + CC[C@@]1(O)C(=O)OCc2c1cc1n(c2=O)Cc2cc3c(CN(C)C)c(O)ccc3nc2-1
Unit label: %
viability, T/C: 63.3

Compound: CC1COCCN1c1cc(-c2ccnn2C)c2ccnc(-c3ccn[nH]3)c2n1 (stereo unspecified) + CC[C@@]1(O)C(=O)OCc2c1cc1n(c2=O)Cc2cc3c(CN(C)C)c(O)ccc3nc2-1
Unit label: %
viability, T/C: 15

Turning now to a further record.
[ask] Given CC(C)n1c(=O)n(C)c2cnc3cc(F)c(-c4ccc(OCCCN5CCCCC5)nc4)cc3c21 + CC[C@@]1(O)C(=O)OCc2c1cc1n(c2=O)Cc2cc3c(CN(C)C)c(O)ccc3nc2-1 , respond with its viability, T/C.
[reply] 18.7
